The measured values listed here are drawn from paper doi:10.1101/2025.09.30.679521v1.

experimental-details: in vitro
Design: mouse liver microsomal stability
conditions: liver microsomes; Mouse liver microsomes; read-out: Mouse liver Mic T1/2 / min
Give half-life for every item shown.

[ask] // lookup half-life for Nc1ncnc2c1ncn2[C@@H]1O[C@H](CSc2nc3ccccc3[nH]2)[C@@H](O)[C@H]1O [compound 15]
[reply] > 30 min

[ask] What about Nc1ncnn2c([C@@H]3O[C@H](CSc4ccc5ccccc5c4)[C@@H](O)[C@H]3O)ccc12 [compound 37] ?
[reply] 13.6 min

[ask] What about Nc1ncnc2c1ncn2[C@@H]1C[C@H](CSc2nc3ccccc3s2)[C@@H](O)[C@H]1O [compound 26] ?
[reply] > 30 min
